- targetOfAssay: kainate site (non-NMDA receptor)
- assayOverview: Kainate site (non-NMDA receptor) binding affinity (London and Coyle)
- assayContext: Table 2, cyclopentyl-fused analogs
Structures can show the parent of a compound that is named as a salt.
Lab note: compare IC50 with 2 µM, writing true if less and false if equal or more.

[[record]]
molecule = "CN(C)C1Cc2c([N+](=O)[O-])cc3[nH]c(=O)c(=O)[nH]c3c2C1 (centres unmarked) [Example 90]"
answerlabel = "false"

[[record]]
molecule = "NC1Cc2c([N+](=O)[O-])cc3[nH]c(=O)c(=O)[nH]c3c2C1 (centres unmarked) [Example 38, hydrochloride]"
answerlabel = "false"


In the record for O=C(NC1Cc2c([N+](=O)[O-])cc3[nH]c(=O)c(=O)[nH]c3c2C1)c1ccccn1 (centres unmarked) [Example 62] , is IC50 less than 2 µM?
true

Can you handle O=c1[nH]c2cc([N+](=O)[O-])c3c(c2[nH]c1=O)CC(N1CCCCC1)C3 (centres unmarked) [Example 108] next?
true

Can you handle O=C(NC1Cc2c([N+](=O)[O-])cc3[nH]c(=O)c(=O)[nH]c3c2C1)c1ccsc1 (centres unmarked) [Example 60] next?
true

Can you handle CN(C(=O)c1cccs1)C1Cc2c([N+](=O)[O-])cc3[nH]c(=O)c(=O)[nH]c3c2C1 (centres unmarked) [Example 67] next?
true

Can you handle CN(C(=O)c1ccccc1)C1Cc2c([N+](=O)[O-])cc3[nH]c(=O)c(=O)[nH]c3c2C1 (centres unmarked) [Example 68] next?
true

Can you handle CCN(CC)C1Cc2c([N+](=O)[O-])cc3[nH]c(=O)c(=O)[nH]c3c2C1 (centres unmarked) [Example 109] next?
false

====

- Test system: AMPA-induced neuronal damage in primary cortical neuronal cultures
- assayOverview: AMPA-induced neuronal damage in primary cortical neuronal cultures, LDH release
- Assay type: cell-based
- assayContext: Table 1, cyclohexyl-fused analogs, long-term exposure to 100 μM AMPA
Where a name gives a salt, the structure may show the parent alone.
observable: IC50

Illustrative cases are given below, each with its answer.
[[record]]
compound = "CC(=O)NC1CCc2c([N+](=O)[O-])cc3[nH]c(=O)c(=O)[nH]c3c2C1 (centres unmarked)"
targetofassay = "AMPA-induced neuronal damage in primary cortical neuronal cultures"
reading = "> 30 µM"

[[record]]
compound = "NC1CCc2c([N+](=O)[O-])cc3[nH]c(=O)c(=O)[nH]c3c2C1 (centres unmarked)"
targetofassay = "AMPA-induced neuronal damage in primary cortical neuronal cultures"
reading = "20 µM"

[[record]]
compound = "O=C(NC1CCc2c([N+](=O)[O-])cc3[nH]c(=O)c(=O)[nH]c3c2C1)c1ccccc1 (centres unmarked)"
targetofassay = "AMPA-induced neuronal damage in primary cortical neuronal cultures"
reading = "30 µM"


Form: Entry = O=C(NC1CCc2c([N+](=O)[O-])cc3[nH]c(=O)c(=O)[nH]c3c2C1)C1CCNCC1 (centres unmarked) [Example 40, hydrochloride] | System = AMPA-induced neuronal damage in primary cortical neuronal cultures | IC50 = ____
25 µM

Can you handle O=C(NC1CCc2c([N+](=O)[O-])cc3[nH]c(=O)c(=O)[nH]c3c2C1)C1CCCCC1 (centres unmarked) next?
28 µM

====

- targetOfAssay: AMPA receptors
- assayOverview: AMPA receptor binding affinity (Honore et al.)
- assayContext: Table 1, cyclohexyl-fused analogs
Below, each of the molecules is paired with its reported IC50 value.
Form entry: value (µM) — number only.

Record request: IC50 value, item O=C(Nc1ccccc1)NC1CCc2c([N+](=O)[O-])cc3[nH]c(=O)c(=O)[nH]c3c2C1 (stereo not drawn)
0.15

Can you handle CN(C(=O)c1ccccc1)C1CCc2c([N+](=O)[O-])cc3[nH]c(=O)c(=O)[nH]c3c2C1 (stereo not drawn) next?
1.1

Can you handle CC(=O)NC1CCc2c([N+](=O)[O-])cc3[nH]c(=O)c(=O)[nH]c3c2C1 (stereo not drawn) next?
0.56

====

- targetOfAssay: kainate site (non-NMDA receptor)
- assayOverview: Kainate site (non-NMDA receptor) binding affinity (London and Coyle)
- assayContext: Table 1, cyclohexyl-fused analogs
Structures can show the parent of a compound that is named as a salt.
observable: IC50 (µM)
Form entry: value (µM) — number only.

[[record]]
compound = "O=C(NC1CCc2c([N+](=O)[O-])cc3[nH]c(=O)c(=O)[nH]c3c2C1)C1CCNCC1 (centres unmarked) [Example 40, hydrochloride]"
observable = "IC50"
reading = 0.82

[[record]]
compound = "CN(C(=O)c1ccccc1)C1CCc2c([N+](=O)[O-])cc3[nH]c(=O)c(=O)[nH]c3c2C1 (centres unmarked) [Example 53]"
observable = "IC50"
reading = 1.6

[[record]]
compound = "O=c1[nH]c2cc([N+](=O)[O-])c3c(c2[nH]c1=O)CC(N1CCCC1)CC3 (centres unmarked) [Example 86]"
observable = "IC50"
reading = 3.8


Record request: IC50 value, item CNC1CCc2c([N+](=O)[O-])cc3[nH]c(=O)c(=O)[nH]c3c2C1 (centres unmarked) [Example 52]
2.8

Can you handle O=c1[nH]c2cc(Br)c3c(c2[nH]c1=O)CC(O)CC3 (centres unmarked) [Example 7] next?
3

Can you handle O=C(Nc1ccccc1)NC1CCc2c([N+](=O)[O-])cc3[nH]c(=O)c(=O)[nH]c3c2C1 (centres unmarked) [Example 42] next?
0.83

Can you handle CC(=O)NC1CCc2c([N+](=O)[O-])cc3[nH]c(=O)c(=O)[nH]c3c2C1 (centres unmarked) [Example 17] next?
2.2

====

- targetOfAssay: glycine site of the NMDA receptor (Rattus norvegicus)
- Construct: from tissue
- assayOverview: Glycine site of the NMDA receptor binding affinity (Jones et al.)
- assayContext: Table 2, cyclopentyl-fused analogs
Lab note: compare IC50 with 1 µM, writing Yes if less and No if equal or more.

In the record for O=C(NC1Cc2c([N+](=O)[O-])cc3[nH]c(=O)c(=O)[nH]c3c2C1)c1cccs1 (stereo not shown) , is IC50 less than 1 µM?
Yes

====

- targetOfAssay: kainate site (non-NMDA receptor)
- assayOverview: Kainate site (non-NMDA receptor) binding affinity (London and Coyle)
- assayContext: Table 1, cyclohexyl-fused analogs
observable: IC50 (µM)
Form entry: value (µM) — number only.

[[record]]
compound = "NC1CCc2c([N+](=O)[O-])cc3[nH]c(=O)c(=O)[nH]c3c2C1 (stereo not drawn)"
targetofassay = "kainate site (non-NMDA receptor)"
measureunit = "µM"
reading = 2.8


Now examine the next entry.
Record request: IC50 value, item O=C(NC1CCc2c([N+](=O)[O-])cc3[nH]c(=O)c(=O)[nH]c3c2C1)c1ccccc1 (stereo not drawn)
0.9

====

- targetOfAssay: glycine site of the NMDA receptor (Rattus norvegicus)
- Construct: from tissue
- assayOverview: Glycine site of the NMDA receptor binding affinity (Jones et al.)
- assayContext: Table 1, cyclohexyl-fused analogs
Where a name gives a salt, the structure may show the parent alone.
Below, each of the compounds is paired with its reported IC50 value.
Form entry: value (µM) — number only.

[[record]]
compound = "NC1CCc2c([N+](=O)[O-])cc3[nH]c(=O)c(=O)[nH]c3c2C1 (stereo not shown) [Example 15]"
observable = "IC50"
measureunit = "µM"
reading = 1.8


Form: Entry = O=C(NC1CCc2c([N+](=O)[O-])cc3[nH]c(=O)c(=O)[nH]c3c2C1)C1CCNCC1 (stereo not shown) [Example 40, hydrochloride] | System = glycine site of the NMDA receptor (Rattus norvegicus) | IC50 = ____
0.28

Can you handle O=C(NC1CCc2c([N+](=O)[O-])cc3[nH]c(=O)c(=O)[nH]c3c2C1)C1CCCCC1 (stereo not shown) [Example 37] next?
0.5

Can you handle CC(=O)NC1CCc2c([N+](=O)[O-])cc3[nH]c(=O)c(=O)[nH]c3c2C1 (stereo not shown) [Example 17] next?
0.62

Can you handle O=C(Nc1ccccc1)NC1CCc2c([N+](=O)[O-])cc3[nH]c(=O)c(=O)[nH]c3c2C1 (stereo not shown) [Example 42] next?
0.18

Can you handle O=c1[nH]c2cc(Br)c3c(c2[nH]c1=O)CC(O)CC3 (stereo not shown) [Example 7] next?
1.5

Can you handle O=C(NC1CCc2c([N+](=O)[O-])cc3[nH]c(=O)c(=O)[nH]c3c2C1)c1ccccc1 (stereo not shown) [Example 36] next?
0.09

====

- targetOfAssay: glycine site of the NMDA receptor (Rattus norvegicus)
- Construct: from tissue
- assayOverview: Glycine site of the NMDA receptor binding affinity (Jones et al.)
- assayContext: Table 2, cyclopentyl-fused analogs
observable: IC50 (µM)
Form entry: value (µM) — number only.

Illustrative cases are given below, each with its answer.
[[record]]
compound = "O=C(NC1Cc2c([N+](=O)[O-])cc3[nH]c(=O)c(=O)[nH]c3c2C1)c1ccsc1 (stereo not drawn) [Example 60]"
targetofassay = "glycine site of the NMDA receptor (Rattus norvegicus)"
observable = "IC50"
reading = 0.4

[[record]]
compound = "CC(=O)NC1Cc2c([N+](=O)[O-])cc3[nH]c(=O)c(=O)[nH]c3c2C1 (stereo not drawn) [Example 32]"
targetofassay = "glycine site of the NMDA receptor (Rattus norvegicus)"
observable = "IC50"
reading = 1.3

[[record]]
compound = "CN(C)C1Cc2c([N+](=O)[O-])cc3[nH]c(=O)c(=O)[nH]c3c2C1 (stereo not drawn) [Example 90]"
targetofassay = "glycine site of the NMDA receptor (Rattus norvegicus)"
observable = "IC50"
reading = 12


Record request: IC50 value, item O=C(NC1Cc2c([N+](=O)[O-])cc3[nH]c(=O)c(=O)[nH]c3c2C1)c1ccccc1 (stereo not drawn) [Example 39]
0.4

Can you handle O=C(O)C1Cc2c([N+](=O)[O-])cc3[nH]c(=O)c(=O)[nH]c3c2C1 (stereo not drawn) [Example 78] next?
14
